assay: qHTS assay to identify small molecule agonists of the sonic hedgehog signaling (Shh) pathway - cell viability counter screen (AID 1259366); conditions: NIH/3T3 Gli1-Luc viability, CellTiter-Fluor, 24 h; series mostly up to 92.4 µM; note: % is set by controls: 0 for no effect and ±100 for the full control effect; nearly all actives have a fitted effect of over 50% in size
Results filed as inconclusive are left out. Calls of active or inactive are those of the source. Calls come from the whole dose curve; as a rule, active = well fitted cell-killing curve with a large enough effect in the repeat runs; inconclusive = weak or mixed curves, or effect the other way; inactive = flat fitted curve, though single readings scatter.
READOUT: viability change, negative = cytotoxic

[[record]]
molecule = "Cc1nc2n(c(=O)c1CCN1CCC(c3noc4cc(F)ccc34)CC1)CCC[C@H]2O"
readout = "viability change, negative = cytotoxic"
measured_value = "-0.31% [at 19 µM] (inactive)"

[[record]]
molecule = "O=C(OCc1ccccc1)C(=O)OCc1ccccc1"
readout = "viability change, negative = cytotoxic"
measured_value = "inactive"

[[record]]
molecule = "C[C@@H](Oc1ccc(CNC(=O)c2cccnc2Oc2ccc3c(c2)OCO3)c(F)c1)C(=O)O"
readout = "viability change, negative = cytotoxic"
measured_value = "inactive"

[[record]]
molecule = "COCCc1ccc(OCC2CO2)cc1 (stereo unspecified)"
readout = "viability change, negative = cytotoxic"
measured_value = "inactive"

[[record]]
molecule = "COc1cc(C(=S)N2CCOCC2)cc(OC)c1OC"
readout = "viability change, negative = cytotoxic"
measured_value = "inactive"

[[record]]
molecule = "CCOC(=O)c1ncn2c1CN(C)C(=O)c1cc(F)ccc1-2"
readout = "viability change, negative = cytotoxic"
measured_value = "inactive"


Inquiry: Provide only the value of recorded viability change, negative = cytotoxic for O=C(OCC(O)CO)c1ccccc1Nc1ccnc2c(C(F)(F)F)cccc12 (stereo unspecified)
Reply text: inactive

Inquiry: Using the record for CCCCCOC(=O)CCC , state its measured viability change, negative = cytotoxic.
Reply text: inactive

Inquiry: Retrieve viability change, negative = cytotoxic measured for C=C(C)C(=O)OCc1ccccc1 and print it.
Reply text: inactive

Inquiry: For the molecule Nc1ccc2cc(S(=O)(=O)O)cc(O)c2c1 , give its measured viability change, negative = cytotoxic value.
Reply text: inactive

Inquiry: State its viability change, negative = cytotoxic for this molecule: COCCOC(=O)C1=C(C)NC(C)=C(C(=O)OC(C)C)C1c1cccc([N+](=O)[O-])c1 (stereo unspecified)
Reply text: inactive

Inquiry: Tell me measured viability change, negative = cytotoxic for Cc1ccsc1/C=C/C1=NCCCN1C please.
Reply text: inactive

Inquiry: Report measured viability change, negative = cytotoxic; entry is O=C(/N=N/C(=O)OCc1ccccc1)OCc1ccccc1
Reply text: inactive

Inquiry: Could you please provide reported viability change, negative = cytotoxic for CN=C(NC#N)Nc1ccc(C2=NNC(=O)CC2C)cc1 (stereo unspecified) ? Thanks!
Reply text: inactive

* * *

target: Cytochrome P450 2C19 (Homo sapiens) (UniProt P33261); assay: Cytochrome P450 Family 2 Subfamily C Member 19 (CYP2C19) small molecule antagonists: luciferase reporter qHTS assay (AID 1671197); settings: P450-Glo CYP2C19 enzyme, luciferin luminescence, 1 h; series mostly up to 115 µM; note: nearly all actives have a fitted effect of over 65% in size
Sequence (P33261 whole entry, looked up): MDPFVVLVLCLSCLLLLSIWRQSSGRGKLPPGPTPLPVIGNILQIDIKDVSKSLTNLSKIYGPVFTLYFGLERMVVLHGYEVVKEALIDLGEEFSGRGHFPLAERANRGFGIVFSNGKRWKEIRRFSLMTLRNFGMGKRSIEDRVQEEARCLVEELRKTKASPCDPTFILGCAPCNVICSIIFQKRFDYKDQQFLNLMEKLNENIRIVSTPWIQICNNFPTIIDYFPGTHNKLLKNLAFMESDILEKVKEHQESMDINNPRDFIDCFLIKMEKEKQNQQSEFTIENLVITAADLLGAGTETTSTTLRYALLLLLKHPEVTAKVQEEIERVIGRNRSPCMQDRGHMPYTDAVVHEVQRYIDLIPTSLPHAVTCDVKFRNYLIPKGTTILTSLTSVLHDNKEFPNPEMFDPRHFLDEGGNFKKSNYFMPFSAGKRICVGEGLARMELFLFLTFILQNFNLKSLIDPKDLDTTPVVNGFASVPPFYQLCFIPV
Records with an inconclusive call do not appear. The source made the active and inactive calls. Calls follow the shape of the dose curve; as a rule, active = well fitted inhibition curve with a large enough effect in the repeat runs; inconclusive = weak or mixed curves; inactive = no such curve, though single readings can be large or run the other way.
Hi! Could you answer with just one of these? active, inactive

Take a look at these entries with their results.
[[record]]
smiles = "CCCCOCCOC(=O)COc1nc(Cl)c(Cl)cc1Cl"
answer_label = "active"

[[record]]
smiles = "O=S(=O)(O)c1ccc2cc(O)c(S(=O)(=O)O)cc2c1"
answer_label = "inactive"

[[record]]
smiles = "CN1C(C)(C)CCCC1(C)C"
answer_label = "inactive"

[[record]]
smiles = "Oc1ccccc1-c1nnco1"
answer_label = "inactive"

[[record]]
smiles = "Cc1cc(C(C)(C)C)c(O)c(C)c1CC1=NCCN1"
answer_label = "inactive"


Inquiry: Please state the recorded outcome for this compound: Brc1ccc(-c2ccccc2)cc1
Reply text: inactive

Inquiry: # lookup: test call for O=C(CCN1CCN(CCO)CC1)N1c2ccccc2Sc2ccc(C(F)(F)F)cc21
Reply text: inactive

* * *

target: Nuclear receptor subfamily 1 group I member 2 (Homo sapiens); assay: Human pregnane X receptor (PXR) small molecule agonists, qHTS assay (AID 1346982); settings: PXR-Luc HepG2, CYP3A4 luciferase reporter, 24 h; series mostly up to 92.4 µM; note: nearly all actives have a fitted effect of over 35% in size; for activation: % is set by controls: 0 for no effect and ±100 for the full control effect
Results filed as inconclusive are left out. Calls of active or inactive are those of the source. Calls come from the whole dose curve; as a rule, active = well fitted activation curve with a large enough effect in the repeat runs; inconclusive = weak or mixed curves; inactive = no such curve, though single readings can be large or run the other way.
Returns: one label drawn from active, inactive

[[record]]
compound = "CC(S)C(=O)NCC(=O)O (stereo not drawn)"
answer_label = "inactive"

[[record]]
compound = "O=C1CCCC(=O)O1"
answer_label = "inactive"

[[record]]
compound = "CC/C=C\\CC1=C(C)CCC1=O"
answer_label = "active"

[[record]]
compound = "C=C1CC/C=C(\\C)CC[C@@H]2[C@@H]1CC2(C)C"
answer_label = "inactive"

[[record]]
compound = "CCCCNC1CC(C)(C)NC(C)(C)C1"
answer_label = "inactive"


Inquiry: Write down the call the test reported for this compound. Item: CC(C)C(=O)OCc1cccc(OC(=O)[C@@H]2N3C(=O)[C@@H](NC(=O)Cc4ccccc4)[C@H]3SC2(C)C)c1
Reply text: inactive

Inquiry: How was CN1C(C)(C)CCCC1(C)C classified in this test?
Reply text: inactive

Inquiry: # outcome recorded in this test, key = CCCCCCCCC(=O)Cl
Reply text: inactive

* * *

assay: qHTS assay to identify small molecule antagonists of the androgen receptor (AR) signaling pathway using the MDA cell line - cell viability counter screen (AID 743041; note: % is set by controls: 0 for no effect and ±100 for the full control effect; nearly all actives have a fitted effect of over 45% in size); conditions: MDA-kb2 viability, CellTiter-Fluor, 16 h, cells co-treated with R1881 androgen agonist; series mostly up to 70.3 µM
Results filed as inconclusive are left out. The source made the active and inactive calls. Calls follow the shape of the dose curve; as a rule, active = well fitted cell-killing curve with a large enough effect in the repeat runs; inconclusive = weak or mixed curves, or effect the other way; inactive = flat fitted curve, though single readings scatter.
READOUT: viability change, negative = cytotoxic

Use these answered entries as a reference point.
[[record]]
smiles = "Nc1ncnc(Nc2ccccc2)n1"
measured_value = "inactive"

[[record]]
smiles = "CCC(C=O)CC"
measured_value = "inactive"

[[record]]
smiles = "Cc1c(I)c(=O)n(-c2ccccc2)n1C"
measured_value = "inactive"

[[record]]
smiles = "CC(=O)Nc1cccc(C)c1"
measured_value = "inactive"


Next molecule, viability change, negative = cytotoxic to be filled in.
Inquiry: Fill in reported viability change, negative = cytotoxic for this entry: NCCN1CCOCC1
Reply text: inactive

* * *

target: Peroxisome proliferator-activated receptor delta (Homo sapiens); assay: qHTS assay to identify small molecule agonists of the peroxisome proliferator-activated receptor delta (PPARd) signaling pathway (AID 743212); details: HEK293H PPARd-UAS-bla, beta-lactamase FRET ratio, 17 h; series mostly up to 62.6 µM;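 note: HEK293H cells with PPARd UAS beta-lactamase reporter GeneBLAzer system; % is set by controls: 0 for no effect and ±100 for the full control effect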
Results filed as inconclusive are left out. The source made the active and inactive calls. The call rests on the fitted dose curve.
READOUT: activation

Completed entries (count: 10):
[[record]]
molecule = "CCCC/C=C/C=C\\C=O"
measured_value = "inactive"

[[record]]
molecule = "C#CC(C)N(C)C(=O)Nc1ccc(Cl)cc1 (stereo unspecified)"
measured_value = "inactive"

[[record]]
molecule = "Cc1cc(C(C)(C)C)c(O)c(C)c1CC1=NCCN1"
measured_value = "inactive"

[[record]]
molecule = "C[C@@H](Oc1ccc(CNC(=O)c2cccnc2Oc2ccc3c(c2)OCO3)c(F)c1)C(=O)O"
measured_value = "inactive"

[[record]]
molecule = "Cc1ccc(S(=O)(=O)O)c(C)c1"
measured_value = "inactive"

[[record]]
molecule = "CC(N)C(=O)OC(C)(C)Cc1ccc(Cl)cc1 (stereo unspecified)"
measured_value = "inactive"

[[record]]
molecule = "O=Cc1ccc(Cl)c(Cl)c1"
measured_value = "inactive"

[[record]]
molecule = "CC(C)(C)c1nnc(NS(=O)(=O)c2ccc(N)cc2)s1"
measured_value = "inactive"

[[record]]
molecule = "NC(CO)C(=O)NNCc1ccc(O)c(O)c1O (stereo unspecified)"
measured_value = "inactive"

[[record]]
molecule = "Cc1ccccc1N=O"
measured_value = "inactive"


Inquiry: Supply recorded activation for Cc1c(I)c(=O)n(-c2ccccc2)n1C here.
Reply text: inactive

Inquiry: Kindly indicate its recorded activation. Item: COc1ccc(S(=O)(=O)N2c3ccc(Cl)cc3[C@@](O)(c3ccccc3Cl)[C@H]2C(=O)N2CCC[C@@H]2C(N)=O)cc1OC
Reply text: inactive

Inquiry: Provide measured activation value, entry: COc1ccc(C2CNC(=O)C2)cc1OC1CCCC1 (stereo unspecified)
Reply text: inactive

Inquiry: # return recorded activation for entry NS(=O)(=O)c1ccc(NC(=O)CCC(=O)O)cc1
Reply text: inactive

Inquiry: Return reported activation. Input molecule: CCCCCCOc1ccccc1C(N)=O
Reply text: inactive

Inquiry: Give activation for COc1ccc2c(c1)C(=O)N(CCc1ccc(S(=O)(=O)NC(=O)NC3CCCCC3)cc1)C(=O)C2(C)C
Reply text: inactive

Inquiry: Annotate the molecule CCCCOC(=O)c1ccccc1 with its measured activation.
Reply text: inactive

Inquiry: Kindly indicate its recorded activation. Item: CCCCN
Reply text: inactive

Inquiry: Kindly indicate its recorded activation. Item: C=CC(OCC)OCC
Reply text: inactive

Inquiry: Tell me its activation given CCC(C=O)CC as the entry.
Reply text: inactive

Inquiry: Look up activation of Nc1ccc(S(=O)(=O)Nc2ccc(Cl)nn2)cc1 and report it.
Reply text: inactive

Inquiry: Supply recorded activation for CCCCC(CC)COCCO (stereo unspecified) here.
Reply text: inactive

Inquiry: Look up and report measured activation for this entry: CC(=C(CCOC(=O)C(C)C)SSC(CCOC(=O)C(C)C)=C(C)N(C=O)Cc1cnc(C)nc1N)N(C=O)Cc1cnc(C)nc1N
Reply text: inactive

Inquiry: Supply activation value. Item: O=C(O)c1ccc(Cl)cc1Cl
Reply text: inactive

Inquiry: # return recorded activation for input O=C(OCC1(COC(=O)c2cccnc2)CCCC(COC(=O)c2cccnc2)(COC(=O)c2cccnc2)C1O)c1cccnc1
Reply text: inactive

Inquiry: Check the records and state activation for CCOC(=O)CC(=O)c1ccccc1
Reply text: inactive
